src = ChEMBL document CHEMBL1201862

Each entry below carries its reported GI50.
# Test system: SK-MEL-2
# assay.name: NCI tumour cell line growth inhibition, 48 h
Activity calls are given as the source filed them. No stated cut-off is given here; in the data, active = GI50 up to about 1.1 µM and inactive = higher.

Observed GI50 on SK-MEL-2 for C=CCCCN1C(=O)C2C3c4ccccc4C(C=O)(c4ccccc43)C2C1=O (stereo unspecified) , please.
24 µM (inactive)

Check COc1ccc2cc(NC(=O)N/N=C\c3ccc(Cl)cc3)ccc2c1 too.
> 100 µM (inactive)

Check Cn1c2n/c(=N\c3ccc(Cl)cc3)[n+]3ccc4ccccc4c3c-2c([O-])n1-c1ccccc1 too.
> 100 µM (inactive)

Check COc1cc(C2c3cc4c(cc3OC(O)C2C)OCO4)cc(OC)c1OC (stereo unspecified) too.
0.486 µM (active)

Check O=C1CCCC2=C(N1)C(=O)C=CC2=O too.
44 µM (inactive)

# ---- query compound ----
Observed GI50 on SK-MEL-2 for O=C1c2ccc3ccccc3c2CCC1N1CCCCC1 (stereo unspecified) , please.
19.6 µM (inactive)

----------
# Test system: SR
# assay.name: NCI tumour cell line growth inhibition, 48 h
Active and inactive are the calls of the source. No stated cut-off is given here; in the data, active = GI50 up to about 1.1 µM and inactive = higher.
Each entry below carries its reported GI50.

Need GI50, item C=C[C@@H]1C(CO)=CCC2[C@H]1CCC1C(C)(C)C(=O)CC[C@]21C (stereo not given in full)
> 100 µM (inactive)

Check O=C(O)c1cc(/C=C/c2cc(O)ccc2O)ccc1O too.
> 10 µM (inactive)

Check c1ccc2c(c1)CCc1c(-c3ccncc3)n[nH]c1-2 too.
27.8 µM (inactive)

# ---- query compound ----
Need GI50, item CCOC(=O)C(NC(=O)c1ccccc1)(N1CCN(c2cc3c(cc2F)c(=O)c(C(=O)O)cn3CC)CC1)C(F)(F)F (stereo not given)
27.2 µM (inactive)

----------
# Tested on: SNB-19
# assay.name: NCI tumour cell line growth inhibition, 48 h
Calls of active or inactive are those of the source. Rule as the data show it: active = GI50 up to about 1.1 µM and inactive = higher.
Each entry below carries its reported GI50.

Need GI50, item CC(=O)C1=C(c2ccccc2)N(C2OC(CO)C(O)C(O)C2O)C(S)=C(C#N)C1c1ccc(Cl)cc1 (stereo unspecified)
34.9 µM (inactive)

---
Need GI50, item COc1cc(C2Oc3cc(-c4oc5cc(O)cc(O)c5c(=O)c4O)ccc3OC2CO)ccc1O (stereo unspecified) [DEHYDROSILYLBIN]
7.43 µM (inactive)

Check C/C=C1\CNC1C(=O)O (stereo unspecified) too.
> 100 µM (inactive)

Check Nc1ccccc1SC(C[N+](=O)[O-])c1ccc2c(c1)OCO2 (stereo unspecified) too.
12 µM (inactive)

----------
# Tested on: SF-268
# assay.name: NCI tumour cell line growth inhibition, 48 h
Active and inactive are the calls of the source. Cut-off read from the data, not from the text of the source: active = GI50 up to about 1.1 µM and inactive = higher.
Use one of these outcomes when replying: active, inactive

Outcome? COC(=O)C(=O)C(C#N)c1ccc(Cl)c(Cl)c1 (stereo unspecified)
inactive

Check COC(=O)c1c(O)ccc2c1c1c(n2CCc2ccccc2)C(=O)c2ccccc2C1=O too.
inactive

Check C=CC(=O)N1C/C(=C\c2ccc(N(C)C)cc2)C(=O)/C(=C/c2ccc(N(C)C)cc2)C1 too.
inactive

Check CC(C)=CCC(OC(=O)C=C(C)C)c1cc(O)c2c(c1O)C(=O)C=CC2=O (stereo unspecified) too.
inactive

Check C=CCC(C(=O)O)c1ccccc1 (stereo unspecified) too.
inactive

---
Outcome? COc1ccc(C2=NN(c3ccccc3)C(c3cc4cc(Br)ccc4nc3Cl)C2)cc1 (stereo unspecified)
inactive

Check COc1ccc(/[N+]([O-])=C/c2ccccc2OC(=S)S)cc1 too.
inactive

Check CC1(C)CC(=O)c2c(nc(SSc3nc4c(c(-c5ccccc5)c3C#N)C(=O)CC(C)(C)C4)c(C#N)c2-c2ccccc2)C1 too.
inactive

Check COc1cccc(/C=C/c2ccnc3ccccc23)c1OC too.
inactive

Check COc1ccc(OC)c2c1C(=O)C1CC1(Br)C2=O (stereo unspecified) too.
inactive

----------
# Tested on: K562
# assay.name: NCI tumour cell line growth inhibition, 48 h
Calls of active or inactive are those of the source. No stated cut-off is given here; in the data, active = GI50 up to about 1.1 µM and inactive = higher.
recorded.endpoint: GI50

Solved entries (count: 3):
Observed GI50 on K562 for O=C(O)C(=Cc1ccc(-c2ccccc2)cc1)C(=O)O , please.
5.7 µM (inactive)

Check COP(=O)(O)/C=C/C(NC(=O)C(Cl)(Cl)Cl)c1ccccc1 (stereo unspecified) too.
> 100 µM (inactive)

Check NCc1ccc(O)c(O)c1 too.
> 100 µM (inactive)

---
Observed GI50 on K562 for CC1CCC23COC(=O)C2C(O)CCC3C1(C)CC(O)c1ccoc1 (stereo unspecified) , please.
> 100 µM (inactive)

Check COc1cccc2c1C(=O)c1c(O)c3c(c(O)c1C2=O)C[C@@](O)(C(C)=O)C[C@@H]3OC1CC(O)C(O)C(C)O1 (stereo partly specified) too.
0.925 µM (active)

Check Clc1ccc(OCc2nnc(CCCCCCCCc3nnc(COc4ccc(Cl)cc4Cl)o3)o2)c(Cl)c1 too.
18.2 µM (inactive)

Check O=C(CCCN1CC=C(n2c(=O)[nH]c3ccccc32)CC1)c1cccs1 too.
66.2 µM (inactive)

Check Cc1ccc(C(=O)Nc2ccc(S(=O)(=O)O)c3cc(S(=O)(=O)O)cc(S(=O)(=O)O)c23)cc1N too.
> 100 µM (inactive)

----------
# Tested on: HOP-92
# assay.name: NCI tumour cell line growth inhibition, 48 h
The source made the active and inactive calls. Cut-off read from the data, not from the text of the source: active = GI50 up to about 1.1 µM and inactive = higher.
Each entry below carries its reported GI50.

Solved entries (count: 3):
Observed GI50 on HOP-92 for COc1ccccc1NC(=O)C1=C(C)NC(C)=C(C(=O)Nc2ccccc2OC)C1/C=C/c1ccccc1 , please.
> 100 µM (inactive)

Check CC(O)(c1ccc(OCCC[N+](C)(C)C)cc1)C(C)(O)c1ccc(OCCC[N+](C)(C)C)cc1 (centres undefined) too.
> 100 µM (inactive)

Check O=C1Nc2ccccc2/C1=N/Nc1ccc([N+](=O)[O-])cc1[N+](=O)[O-] too.
3.58 µM (inactive)

# ---- query compound ----
Observed GI50 on HOP-92 for COc1c(C)c(C/C=C(\C)CC/C=C(\C)CC/C=C(\C)CC/C=C(\C)CCC=C(C)C)c(OC)c(OC)c1OC , please.
15.6 µM (inactive)

----------
# System: XF498
# assay.name: NCI tumour cell line growth inhibition, 48 h
Activity calls are given as the source filed them. No stated cut-off is given here; in the data, active = GI50 up to about 1.1 µM and inactive = higher.
Use one of these outcomes when replying: 1 (active), -1 (inactive)

Outcome? COc1cc2c(c(OC)c1OC)-c1cccc(=O)cc1C(NC(C)=O)CC2 (stereo unspecified)
1

---
Outcome? COc1ccc(CCc2cc(OC)c(O)c(OC)c2)cc1
-1

Check O=c1c2ccccc2c(=O)n2n1-c1cccc(c1)CSSCc1cccc-2c1 too.
-1

Check O=C(N/C(=C\c1ccc([N+](=O)[O-])cc1)c1nc2c(O)nc(S)nc2[nH]1)c1ccccc1 too.
-1

Check COC(=O)C1=C(CO)C2C=CC1C2 (stereo unspecified) too.
-1

Check COc1cccc2c1C(=O)c1c(O)c3c(c(O)c1C2=O)C[C@@](O)(C(=O)CO)CC3OC1CC(N(C)CCOCC(OC(C)=O)OC(C)=O)C(O)C(C)O1 (stereo partly specified) too.
1

Check O=C1c2ccccc2C(=O)c2c(NCCCNCCO)ccc(NCCCNCCO)c21 too.
-1

----------
# Tested on: OVCAR-4
# assay.name: NCI tumour cell line growth inhibition, 48 h
Active and inactive are the calls of the source. Rule as the data show it: active = GI50 up to about 1.1 µM and inactive = higher.
recorded.endpoint: GI50

Solved entries (count: 2):
Need GI50, item O=C(c1ccccc1)C1C(c2ccccc2)N1S(=O)(=O)c1ccccc1 (stereo unspecified)
> 100 µM (inactive)

Check O=c1n(CCCN2CCOCC2)nc2n1-c1ccc3ccccc3c1SC2 too.
56.9 µM (inactive)

---
Need GI50, item NC(CCCCN/C=C1/N=C(c2ccccc2)OC1=O)C(=O)O (stereo unspecified)
> 100 µM (inactive)

Check Cc1nc2c(o1)C(=O)c1ccccc1/C2=N/c1ccccn1 too.
15 µM (inactive)

Check Cc1cc(C)nc(NS(=O)(=O)c2ccc(NC(=O)c3cc([N+](=O)[O-])cc([N+](=O)[O-])c3)cc2)n1 too.
22.9 µM (inactive)

Check COC(=O)c1cccc(OC)c1C#Cc1c(OC)cccc1OC too.
54.1 µM (inactive)

Check CC(=O)c1sc2c(c1OC(=O)c1ccco1)c(=O)n(-c1ccccc1)c(=S)n2-c1ccccc1 too.
28.9 µM (inactive)

Check N#Cc1c(-c2ccccc2)c(C#N)c(=O)n(NS(=O)(=O)c2ccccc2)c1O too.
> 100 µM (inactive)

Check Oc1ccc(Nc2nc(Cl)c3nc[nH]c3n2)cc1 too.
> 100 µM (inactive)

----------
# Tested on: EKVX
# assay.name: NCI tumour cell line growth inhibition, 48 h
Activity calls are given as the source filed them. Rule as the data show it: active = GI50 up to about 1.1 µM and inactive = higher.
Each entry below carries its reported GI50.

Solved entries (count: 5):
Need GI50, item COc1ccccc1N1C(=O)CS(=O)(=O)C1c1cccc(Oc2ccccc2)c1 (stereo not given)
20.8 µM (inactive)

Check O=C(c1ccc(Cl)cc1Cl)N(/N=C/C=C/c1ccccc1)c1nnc(-c2ccccc2)c(-c2ccccc2)n1 too.
> 100 µM (inactive)

Check C=C1CCC2C(C)(CO)C(O)CCC2(C)C1C/C=C1\C(=O)OCC1O (stereo not given) too.
29.3 µM (inactive)

Check Cc1c(C#N)c2nc3ccccc3n2c(=O)/c1=C/Nc1ccc(Cl)cc1 too.
50.7 µM (inactive)

Check CCC[C@H]1O[C@@H]2CC(=O)O[C@@H]2C2=C1C(=O)C=CC2=O too.
> 44.1 µM (inactive)

---
Need GI50, item O=C(CC1(O)CCCCC1)OC1CCCC1
> 100 µM (inactive)

Check O=C1/C(=C\c2ccccc2)C(NC2CCCCC2)c2ccccc21 (stereo not given) too.
3.3 µM (inactive)

Check COC1(c2ccc(Cl)cc2)SC=C(C)n2c1noc2=O (stereo not given) too.
> 100 µM (inactive)

Check C=CCCCN1C(=O)C2C3c4ccccc4C(C=O)(c4ccccc43)C2C1=O (stereo not given) too.
6.03 µM (inactive)

Check O=c1c(-c2ccccc2)c(SCCN2CCCCCC2)n(-c2ccccc2)c(=S)n1-c1ccccc1 too.
17.7 µM (inactive)
